Assay: Bmi1 luciferase reporter increase in mESCs, primary screen, esBAF inhibitor project, mouse ES cells, Bmi1 luciferase knock-in, single point (AID 602393);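 further: 0% = median of the plate's neutral control wells and 100% = double that signal; a rise in the Bmi1 reporter signal indicates esBAF inhibition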
Details: 24 h, at 12.5 µM, hits give high values, 100% = twice the neutral-well signal
Out of some 350,000 compounds screened, about 7,000 (2%) were called active. The sample as a whole holds a higher share of actives than the screen did.
readout kind: reporter increase (%)

> print(dat)
                               record.smiles  test.value
 1        CC(=O)c1cccc(NC(=O)Nc2ccc(C)cc2)c1        42.2
 2  C[C@H](CO)N1C[C@H](C)[C@@H](CN(C)C(=O)Nc2ccccc2)Oc2ncc(C3=CCCC3)cc2C1=O        1.19
 3                  O=C(Nc1ccccc1)c1ccccc1Br        22.5
 4       CCSc1nsc(NC(=O)Nc2cccc(C(C)=O)c2)n1        7.31
 5            O=C(NC(=S)Nc1ncccn1)c1ccccc1Br        44.5
 6          COc1ccc(N=C(C)c2sc3ccccc3c2O)cc1        50.4
 7  CCNC(=O)C[C@@H]1CC[C@H]2[C@@H](COC[C@@H](O)CN2C(=O)c2cc(Cl)cc(Cl)c2)O1       -3.54
 8  COc1ccccc1-c1sc2ccccc2c1-c1ccc(C(C)=O)cc1        34.4
 9  CCCC(=O)Nc1ccc2c(c1)C(=O)N(C)[C@H]1CC[C@@H](CC(=O)NCc3cccc(F)c3)O[C@H]1CO2        11.9
10  C[C@H]1CN([C@@H](C)CO)C(=O)c2cccc(NC(=O)Nc3ccccc3)c2O[C@H]1CN(C)Cc1ccc(C(F)(F)F)cc1      -0.852
11  Cc1cccc(S(=O)(=O)N2C[C@@H]3[C@H](c4ccccc42)[C@H](CO)N3CC2CCOCC2)c1        3.89
12  CCCN(C)C[C@@H]1Oc2cc(-c3ccc(C)cc3)ccc2S(=O)(=O)N([C@@H](C)CO)C[C@H]1C       -1.82
13  CCCC(=O)Nc1ccc2c(c1)C(=O)N(C)C[C@H](OC)[C@H](C)CN(CCc1ccccc1)[C@H](C)CO2      -0.112
14  COc1cccc(CNC(=O)C[C@@H]2CC[C@@H]3[C@H](COc4ccc(NC(C)=O)cc4C(=O)N3C)O2)c1        -1.5
15  CO[C@@H]1CN(C)C(=O)c2cc(NC(=O)C3CCC3)ccc2OC[C@H](C)N(Cc2ccccn2)C[C@H]1C        1.86
16         CCCN(CC1CC1)C(=S)NC(=O)c1ccccc1Br       -4.35
17  Cc1ccc(S(=O)(=O)Nc2cccc3c2O[C@@H](CN(C)C(=O)Nc2ccccc2)[C@H](C)CN([C@@H](C)CO)C3=O)cc1       -4.19
18  C[C@@H]1CCCCO[C@@H](CN(C)C(=O)NC2CCCCC2)[C@H](C)CN([C@@H](C)CO)C(=O)c2cc(NC(=O)Nc3ccc(F)cc3)ccc2O1        3.77

----------
Entries and their measured reporter increase follow.
Experiment: Bmi1 luciferase reporter increase in mESCs, primary screen, esBAF inhibitor project, mouse ES cells, Bmi1 luciferase knock-in, single point (AID 602393);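 further: 0% = median of the plate's neutral control wells and 100% = double that signal; a rise in the Bmi1 reporter signal indicates esBAF inhibition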
Conditions: 24 h, at 12.5 µM, hits give high values, 100% = twice the neutral-well signal
Screen size: about 350,000 compounds; about 7,000 (2%) were called active. The sample holds actives, similar compounds and a random draw of the others, so the mix is not that of the screen.
readout kind: reporter increase (%)

> print(dat)
                                    compound  test.value
 1  O=C(C1CCOCC1)N1C[C@H]2[C@@H](c3ccccc31)[C@@H](CO)N2Cc1ccccc1F       0.141
 2  O=C(NCCNc1ccc([N+](=O)[O-])cc1Cl)c1ccccc1F        7.96
 3  C[C@H](CO)N1C[C@H](C)[C@H](CN(C)C(=O)Nc2ccc(C(F)(F)F)cc2)Oc2ccc(NC(=O)C3CC3)cc2C1=O       -3.98
 4  CC(C)Nc1nnc(SCC(=O)/C=C2\N(C)c3ccccc3C2(C)C)s1     -0.0975
 5  Cc1noc(C)c1NC(=O)Nc1ccc2c(c1)C(=O)N([C@@H](C)CO)C[C@H](C)[C@@H](CN(C)Cc1ccncc1)OCCCC[C@@H](C)O2       -7.33
 6              O=C(NCc1ccccn1)Nc1ccc(Cl)cc1        21.5
 7  CN(C)C(CNC(=O)c1cc2ccccc2o1)c1ccccc1 (configuration not stated)        7.21
 8               O=C(Nc1ccncc1)c1cc2ccccc2o1        75.6
 9  CC(C)(C)n1nc2c(c1NC(=O)c1cc3ccccc3o1)CSC2       -2.69
10           O=C(NC1CCCC1)c1cc(-c2ccccc2)on1        18.8
11  C[C@@H]1CCCCO[C@H](CN(C)Cc2ccc(C(F)(F)F)cc2)[C@H](C)CN([C@@H](C)CO)C(=O)c2cc(N(C)C)ccc2O1       0.085
12              COc1cc2[nH]c(O)c(C=O)c2cc1OC        3.41
13  CC(C)NC(=O)Nc1ccc2c(c1)C(=O)N([C@@H](C)CO)C[C@H](C)[C@@H](CN(C)S(C)(=O)=O)O2       -2.99
14  COc1ccc(CNC(=O)[C@H](Cc2c[nH]c3ccccc23)NC(C)=O)cc1OC        3.18
15  CN1/C(=C\C(=O)c2cccnc2Cl)C(C)(C)c2ccccc21        48.4
16      Clc1ccccc1-c1cc(COc2ccc3ccccc3c2)no1         9.3
17      COc1ccc(N=Cc2c(O)[nH]c3ccccc23)cc1OC        73.5
18  CC1CN(Cc2ccccc2)C(=S)NC1=O (configuration not stated)        2.98
19  CC(=O)Nc1cccc(OCC(=O)/C=C2\N(C)c3ccccc3C2(C)C)c1       -12.2
20  O=C(CN1CCOCC1)NCC[C@@H]1CC[C@@H](NC(=O)Nc2ccccc2)[C@H](CO)O1      -0.967
21             C=CCNC(=O)c1cc(-c2ccccc2O)on1        35.4
22  COC(=O)c1cc(OC)c(OC)cc1NC(=O)CSc1ccc(C)cc1       -15.9
